Provenance of the data: patent US10414739B2

biological target: YAP-TEAD interaction (human YAP2-His6 (50-114) / human TEAD1-GST (209-426)) (Homo sapiens, UniProt P28347); construct: GST-TEAD1 (209-426) produced in E. coli; test: YAP-TEAD AlphaLISA assay; settings: YAP-TEAD AlphaLISA, 2 h equilibration at room temperature
Sequence (P28347 209-426): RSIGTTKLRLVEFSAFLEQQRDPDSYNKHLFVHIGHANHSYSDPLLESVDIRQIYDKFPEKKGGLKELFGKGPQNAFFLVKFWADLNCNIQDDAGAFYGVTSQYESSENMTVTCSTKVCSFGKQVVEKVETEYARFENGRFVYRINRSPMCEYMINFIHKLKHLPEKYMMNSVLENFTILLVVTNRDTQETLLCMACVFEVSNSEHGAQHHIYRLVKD
pIC50: −log10 of the molar value. Counter-ions that a name gives are not always drawn.
readoutName: pIC50

Here are 10 molecules together with their reported answers.
{"molecule": "COc1cc(/C=N/N(CCN2CCOCC2)C2=NS(=O)(=O)c3ccc(C)cc32)ccc1O [Example 26, hydrochloride]", "measured": 6.40}
{"molecule": "COc1cc(/C=N/N(CCCO)C2=NS(=O)(=O)c3ccccc32)ccc1O [Example 5]", "measured": 5.26}
{"molecule": "COc1cc(/C=N/N(C)C2=NS(=O)(=O)c3cc(C(=O)O)ccc32)ccc1O [Example 34]", "measured": 5.34}
{"molecule": "COc1cc(/C=N/N(CCO)C2=NS(=O)(=O)c3c(OC)cccc32)ccc1O [Example 22]", "measured": 7.08}
{"molecule": "COc1cc(/C=N/N(CCC(=O)O)C2=NS(=O)(=O)c3ccccc32)ccc1O [Example 8]", "measured": 5.96}
{"molecule": "COc1cc(OC)c2c(c1)C(N(CCN1CCOCC1)/N=C/c1ccc(O)c(OC)c1)=NS2(=O)=O [Example 18, hydrochloride]", "measured": 7.08}
{"molecule": "COc1ccc2c(c1)C(N(CCCN1CCOCC1)/N=C/c1ccc(O)c(OC)c1)=NS2(=O)=O [Example 13, hydrochloride]", "measured": 5.67}
{"molecule": "COc1ccc2c(c1)C(N(CCCO)/N=C/c1ccc(O)c(OC)c1)=NS2(=O)=O [Example 14]", "measured": 5.79}
{"molecule": "COc1cc(/C=N/N(CCCN(C)C)C2=NS(=O)(=O)c3ccccc32)ccc1O [Example 6, hydrochloride]", "measured": 5.15}
{"molecule": "COc1cc(/C=N/N(CCN2CCOCC2)C2=NS(=O)(=O)c3c(OC)cccc32)ccc1O [Example 23, hydrochloride]", "measured": 6.52}

I = CCN(/N=C/c1ccc(O)c(OC)c1)C1=NS(=O)(=O)c2ccccc21 [Example 3]
II = COc1cc(/C=N/N(C)C2=NS(=O)(=O)c3cc(C)ccc32)ccc1O [Example 33]
III = COc1cc(OC)c2c(c1)C(N(CCO)/N=C/c1ccc(O)c(OC)c1)=NS2(=O)=O [Example 17]
Arrange these molecules by their pIC50, starting with the largest number. // respond by listing labels in the order requested
III, II, I
(III: 6.82, II: 6.12, I: 5.30)

###

target: YAP-TEAD interaction (human YAP2-His6 (50-114) / human TEAD1-GST (209-426)) (Homo sapiens); construct: GST-TEAD1 (209-426) produced in E. coli; experiment: YAP-TEAD AlphaLISA assay; settings: YAP-TEAD AlphaLISA, 2 h equilibration at room temperature
pIC50: −log10 of the molar value.
readoutName: pIC50

a = COc1cc(/C=N/N(C2=NS(=O)(=O)c3ccccc32)c2ccc(C(=O)O)cc2)ccc1O
b = COc1cc(OC)c2c(c1)C(N(C)/N=C/c1ccc(O)c(OC)c1)=NS2(=O)=O
c = COCCCN(/N=C/c1ccc(O)c(OC)c1)C1=NS(=O)(=O)c2ccccc21
d = COCCN(/N=C/c1ccc(O)c(OC)c1)C1=NS(=O)(=O)c2ccc(C)cc21
Order the entries by their reported pIC50, beginning at the minimum. Return value: ordered labels per request.
a, c, d, b

###

target: YAP-TEAD interaction (human YAP2-His6 (50-114) / human TEAD1-GST (209-426)) (Homo sapiens, UniProt P28347); construct: GST-TEAD1 (209-426) produced in E. coli; experiment: YAP-TEAD AlphaLISA assay; conditions: YAP-TEAD AlphaLISA, 2 h equilibration at room temperature
pIC50: −log10 of the molar value.
readoutName: pIC50

Here are 2 molecules together with their reported answers.
{"cpdSmiles": "COc1cc(/C=N/N(C)C2=NS(=O)(=O)c3c(OC)cc(C)cc32)ccc1O", "measured": 6.88}
{"cpdSmiles": "COc1cc(/C=N/N(C)C2=NS(=O)(=O)c3ccccc32)ccc1O", "measured": 6.05}

1 = COc1cc(/C=N/N(C)C2=NS(=O)(=O)c3c(C)cc(F)cc32)ccc1O
2 = COc1cc(/C=N/N(CCO)C2=NS(=O)(=O)c3ccc(C)cc32)ccc1O
3 = COc1cc(/C=N/N(CC(=O)NCCO)C2=NS(=O)(=O)c3ccccc32)ccc1O
Endpoint returns the given molecules ordered by ascending pIC50. Please list the labels according to the requested order.
3, 1, 2

###

target: YAP-TEAD interaction (human YAP2-His6 (50-114) / human TEAD1-GST (209-426)) (Homo sapiens); construct: GST-TEAD1 (209-426) produced in E. coli; made in house; host or cells: E. coli; assay: YAP-TEAD AlphaLISA assay; type: binding; conditions: YAP-TEAD AlphaLISA, 2 h equilibration at room temperature
pIC50: −log10 of the molar value.
readoutName: pIC50

{"cpdSmiles": "COc1cc(/C=N/N(CCO)C2=NS(=O)(=O)c3ccccc32)ccc1O", "measured": 6.02}

P = COc1cc(/C=N/N(C)C2=NS(=O)(=O)c3cc(F)ccc32)ccc1O
Q = COc1cc(/C=N/N(CCO)C2=NS(=O)(=O)c3c(OC)cc(C)cc32)ccc1O
R = COc1cc(/C=N/N(C2=NS(=O)(=O)c3ccccc32)C(C)C)ccc1O
Falling order of pIC50, please. Your answer should be the labels, listed in the requested order.
Q, P, R

###

biological target: YAP-TEAD interaction (human YAP2-His6 (50-114) / human TEAD1-GST (209-426)) (Homo sapiens, UniProt P28347); construct: GST-TEAD1 (209-426) produced in E. coli; assay: YAP-TEAD AlphaLISA assay; settings: YAP-TEAD AlphaLISA, 2 h equilibration at room temperature
pIC50: −log10 of the molar value.
readoutName: pIC50

{"cpdSmiles": "COc1ccc2c(c1)C(N(CCO)/N=C/c1ccc(O)c(OC)c1)=NS2(=O)=O", "readoutName": "pIC50", "measured": 6.32}
{"cpdSmiles": "COc1ccc2c(c1)S(=O)(=O)N=C2N(C)/N=C/c1ccc(O)c(OC)c1", "readoutName": "pIC50", "measured": 4.79}
{"cpdSmiles": "COCCN(/N=C/c1ccc(O)c(OC)c1)C1=NS(=O)(=O)c2ccc(OC)cc21", "readoutName": "pIC50", "measured": 5.54}

I = COc1cc(/C=N/N(C)C2=NS(=O)(=O)c3c(OC)cccc32)ccc1O
II = COc1cc(/C=N/N(C)C2=NS(=O)(=O)c3ccc(F)cc32)ccc1O
Given I and given II , which shows the smaller recorded pIC50? Respond with the label that goes with your answer.
II

###

target: YAP-TEAD interaction (human YAP2-His6 (50-114) / human TEAD1-GST (209-426)) (Homo sapiens); construct: GST-TEAD1 (209-426) produced in E. coli; made in house; host or cells: E. coli; assay: YAP-TEAD AlphaLISA assay; assay type: binding; details: 2 h; YAP-TEAD AlphaLISA, maximal % inhibition; read-out: Max Act.
Where a name gives a salt, the structure may show the parent alone.
readoutName: Emax (%)

Worked examples, 5 compounds total:
{"compound": "CCN(/N=C/c1ccc(O)c(OC)c1)C1=NS(=O)(=O)c2ccccc21", "measured": 88}
{"compound": "COc1ccc2c(c1)C(N(C)/N=C/c1ccc(O)c(OC)c1)=NS2(=O)=O", "measured": 77}
{"compound": "COc1cc(OC)c2c(c1)C(N(CCN1CCOCC1)/N=C/c1ccc(O)c(OC)c1)=NS2(=O)=O [Example 18, hydrochloride]", "measured": 97}
{"compound": "COc1cc(/C=N/N(C2=NS(=O)(=O)c3ccccc32)c2ccc(C(=O)O)cc2)ccc1O", "measured": 99}
{"compound": "COc1cc(/C=N/N(C)C2=NS(=O)(=O)c3cc(C)ccc32)ccc1O", "measured": 90}

A = COc1cc(/C=N/N(CCC(=O)O)C2=NS(=O)(=O)c3ccccc32)ccc1O
B = COc1cc(/C=N/N(C)C2=NS(=O)(=O)c3cc(-c4ccccc4)ccc32)ccc1O
When their Emax values are compared, which is larger, A or B ? To answer, give the label that identifies your chosen option.
A

###

target: YAP-TEAD interaction (human YAP2-His6 (50-114) / human TEAD1-GST (209-426)) (Homo sapiens); construct: GST-TEAD1 (209-426) produced in E. coli; assay: YAP-TEAD AlphaLISA assay; settings: YAP-TEAD AlphaLISA, 2 h equilibration at room temperature
readoutName: IC50 (nM)

{"compound": "COc1cc(/C=N/N(C)C2=NS(=O)(=O)c3ccc(C)cc32)ccc1O [Example 25]", "IC50 [nM]": 568}

A = COCCN(/N=C/c1ccc(O)c(OC)c1)C1=NS(=O)(=O)c2c(OC)cc(OC)cc21 [Example 19]
B = COCCN(/N=C/c1ccc(O)c(OC)c1)C1=NS(=O)(=O)c2c(OC)cccc21 [Example 24]
Hi, I'm comparing two records. Which one has the lower IC50, A or B ? Lab note: record the label of whichever item you select.
A
